Test system: Rattus norvegicus
Assay: Oral hypotensive activity in spontaneously hypertensive rats by using tail-cuff method measured as change in systolic BP at the dose of 10 mg/kg po.
Format: functional, Blood
PARAMETER_MEASURED: BP (mmHg)
Give bare numbers, in mmHg.

compound="CN1CCC2(CC1)Oc1ccccc1C2n1cccc1 (centres undefined)" parameter_measured=BP unit_string=mmHg endpoint_result=190
compound="c1ccc2c(c1)OC1(CCNC1)C2n1cccc1 (centres undefined)" parameter_measured=BP unit_string=mmHg endpoint_result=179
compound="c1ccc(CN2CCC3(C2)Oc2ccccc2C3n2cccc2)cc1 (centres undefined)" parameter_measured=BP unit_string=mmHg endpoint_result=171

In the following, a different compound is considered.
Query :: Record request: BP value, item c1ccc2c(c1)OC1(CCNCC1)C2n1cccc1 (centres undefined)
Result :: 198

###

Species: Rattus norvegicus
Assay: Oral hypotensive activity in spontaneously hypertensive rats by using tail-cuff method measured as the initial BP
Assay type: functional, Blood
Rule: BP below 200 mmHg gives t. Equal to or above 200 mmHg gives f.

Study these solved cases before continuing.
molecule="N/C(=N\\O)N1CCC2(CC1)Oc1ccccc1C2n1cccc1 (stereo not given)" group=f
molecule="OCCN1CCC2(CC1)Oc1ccccc1C2n1cccc1 (stereo not given)" group=t

Query :: BP under 200 mmHg? Item: CCN(CC)CCN1CCC2(CC1)Oc1ccccc1C2n1cccc1 (stereo not given)
Result :: t

Query :: Could you please tell me whether BP recorded for CCCN1CCC2(CC1)Oc1ccccc1C2n1cccc1 (stereo not given) is less than 200 mmHg?
Result :: t

###

Organism: Rattus norvegicus
Test: Oral hypotensive activity in spontaneously hypertensive rats by using tail-cuff method measured as change in systolic BP
Format: functional, Blood
PARAMETER_MEASURED: Delta blood pressure (mmHg)
One number for each entry, in mmHg.

Illustrative cases are given below, each with its answer.
compound="CCN(CC)CCN1CCC2(CC1)Oc1ccccc1C2n1cccc1 (stereo not given)" endpoint_result=38
compound="CCCN1CCC2(CC1)Oc1ccccc1C2n1cccc1 (stereo not given)" endpoint_result=14
compound="O=C(CCCN1CCC2(CC1)Oc1ccccc1C2n1cccc1)c1ccc(F)cc1 (stereo not given)" endpoint_result=37
compound="N/C(=N\\O)N1CCC2(CC1)Oc1ccccc1C2n1cccc1 (stereo not given)" endpoint_result=24

Query compound follows.
Query :: Given OCCN1CCC2(CC1)Oc1ccccc1C2n1cccc1 (stereo not given) , state its recorded Delta blood pressure.
Result :: 39
